These entries and their values trace back to ChEMBL document CHEMBL4765491.

Study target: UniProtKB P21589
Protocol text: Inhibition of human CD73 expressed in CHO cells incubated for 60 mins before addition of AMP and further incubated for 60 mins by colorimetric assay
Assay type: cell-based
Reported endpoint: log10 IC50 (log10 of the value in nM)
log10 IC50, nM

I would be grateful if you could share the reported log10 IC50 for `O=P(O)(O)COC[C@H]1O[C@@H](n2cnc3c(NCc4ccccn4)nc(Cl)nc32)[C@H](O)[C@@H]1O` .
2.58

Also check `O=P(O)(O)COC[C@H]1O[C@@H](n2ncc3c(NC4CCCC4)cc(Cl)nc32)[C@H](O)[C@@H]1O`
0.65

Also check `O=P(O)(O)COC[C@H]1O[C@@H](n2cnc3c(N4CCCC4)nc(Cl)nc32)[C@H](O)[C@@H]1O`
1.65

Also check `O=P(O)(O)COC[C@H]1O[C@@H](n2cnc3c(NC4CCCC4)nc(Cl)nc32)[C@H](O)[C@@H]1O`
1.41

Also check `O=P(O)(O)COC[C@H]1O[C@@H](n2cnc3c(NC4CCC4)nc(Cl)nc32)[C@H](O)[C@@H]1O`
1.92

====

Study target: Ectonucleoside triphosphate diphosphohydrolase 3 (Homo sapiens)
Sequence (O75355 whole entry): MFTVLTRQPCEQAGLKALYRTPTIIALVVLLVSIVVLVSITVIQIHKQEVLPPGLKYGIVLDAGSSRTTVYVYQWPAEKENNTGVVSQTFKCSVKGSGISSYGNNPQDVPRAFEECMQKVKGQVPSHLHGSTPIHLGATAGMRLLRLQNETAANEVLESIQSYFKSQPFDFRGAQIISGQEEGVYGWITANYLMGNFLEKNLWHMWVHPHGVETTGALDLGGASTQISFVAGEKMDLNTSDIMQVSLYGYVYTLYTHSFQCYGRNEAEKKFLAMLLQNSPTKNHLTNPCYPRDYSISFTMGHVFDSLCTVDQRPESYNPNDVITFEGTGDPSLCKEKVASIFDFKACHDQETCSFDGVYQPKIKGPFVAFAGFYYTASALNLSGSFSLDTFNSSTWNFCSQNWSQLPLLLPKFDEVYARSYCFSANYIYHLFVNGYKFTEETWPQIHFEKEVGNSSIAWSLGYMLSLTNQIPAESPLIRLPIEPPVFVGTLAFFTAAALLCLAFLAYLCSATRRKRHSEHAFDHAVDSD
Protocol text: Inhibition of human NTPDase-3 expressed in CHO-K1 cells in presence of DNA/LTX mixture
pIC50: −log10 of the molar value.
Reported endpoint: pIC50

I would be grateful if you could share the reported pIC50 for `O=P(O)(O)COC[C@H]1O[C@@H](n2ncc3c(NC4CCCC4)nc(Cl)nc32)[C@H](O)[C@@H]1O` .
< 5.00

====

Study target: Ectonucleoside triphosphate diphosphohydrolase 2 (Homo sapiens, UniProt Q9Y5L3)
Sequence (Q9Y5L3 whole entry): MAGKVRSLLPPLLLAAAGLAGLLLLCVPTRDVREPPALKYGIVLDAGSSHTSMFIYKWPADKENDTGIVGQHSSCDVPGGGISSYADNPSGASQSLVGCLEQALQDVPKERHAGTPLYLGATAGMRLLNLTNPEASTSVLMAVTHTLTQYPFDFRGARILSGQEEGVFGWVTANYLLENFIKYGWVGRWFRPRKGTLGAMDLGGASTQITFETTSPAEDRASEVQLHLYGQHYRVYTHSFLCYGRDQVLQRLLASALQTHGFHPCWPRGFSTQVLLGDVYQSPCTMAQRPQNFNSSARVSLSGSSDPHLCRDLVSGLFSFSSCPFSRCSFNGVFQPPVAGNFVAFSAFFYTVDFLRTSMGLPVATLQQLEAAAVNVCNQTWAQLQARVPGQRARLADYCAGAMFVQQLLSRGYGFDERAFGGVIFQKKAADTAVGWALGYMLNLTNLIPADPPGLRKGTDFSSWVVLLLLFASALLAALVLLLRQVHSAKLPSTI
Protocol text: Inhibition of human NTPDase-2 expressed in CHO-K1 cells in presence of DNA/LTX mixture
Reported endpoint: IC50

I would be grateful if you could share the reported IC50 for `O=P(O)(O)COC[C@H]1O[C@@H](n2ncc3c(NC4CCCC4)nc(Cl)nc32)[C@H](O)[C@@H]1O` .
> 10 µM

====

Study target: 5'-nucleotidase (Mus musculus, UniProt Q61503)
Sequence (Q61503 whole entry): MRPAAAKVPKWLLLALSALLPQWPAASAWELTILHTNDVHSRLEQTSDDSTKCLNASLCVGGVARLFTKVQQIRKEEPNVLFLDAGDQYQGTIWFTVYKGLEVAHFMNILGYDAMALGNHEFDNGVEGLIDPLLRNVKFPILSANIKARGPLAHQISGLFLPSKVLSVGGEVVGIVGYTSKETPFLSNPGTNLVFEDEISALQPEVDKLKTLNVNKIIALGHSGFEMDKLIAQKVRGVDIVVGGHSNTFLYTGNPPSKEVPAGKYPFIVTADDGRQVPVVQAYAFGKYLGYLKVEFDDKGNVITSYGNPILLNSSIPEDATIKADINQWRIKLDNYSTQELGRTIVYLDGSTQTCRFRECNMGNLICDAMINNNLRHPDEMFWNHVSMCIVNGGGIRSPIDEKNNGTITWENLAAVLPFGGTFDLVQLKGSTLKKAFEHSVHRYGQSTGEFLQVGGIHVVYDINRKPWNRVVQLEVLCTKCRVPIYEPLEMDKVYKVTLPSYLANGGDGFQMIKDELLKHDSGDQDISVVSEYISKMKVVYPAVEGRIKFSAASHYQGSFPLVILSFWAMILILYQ
Protocol text: Inhibition of mouse CD73 expressed in CHO cells incubated for 60 mins before addition of AMP and further incubated for 60 mins by colorimetric assay
Type: cell-based
Reported endpoint: pIC50
Scale for pIC50: -log10 of concentration given in mol/L; no unit attached.

I would be grateful if you could share the reported pIC50 for `O=P(O)(O)COC[C@H]1O[C@@H](n2ncc3c(NC4CCCC4)nc(Cl)nc32)[C@H](O)[C@@H]1O` .
7.89

====

Study target: 5'-nucleotidase (Homo sapiens, UniProt P21589)
Sequence (P21589 whole entry): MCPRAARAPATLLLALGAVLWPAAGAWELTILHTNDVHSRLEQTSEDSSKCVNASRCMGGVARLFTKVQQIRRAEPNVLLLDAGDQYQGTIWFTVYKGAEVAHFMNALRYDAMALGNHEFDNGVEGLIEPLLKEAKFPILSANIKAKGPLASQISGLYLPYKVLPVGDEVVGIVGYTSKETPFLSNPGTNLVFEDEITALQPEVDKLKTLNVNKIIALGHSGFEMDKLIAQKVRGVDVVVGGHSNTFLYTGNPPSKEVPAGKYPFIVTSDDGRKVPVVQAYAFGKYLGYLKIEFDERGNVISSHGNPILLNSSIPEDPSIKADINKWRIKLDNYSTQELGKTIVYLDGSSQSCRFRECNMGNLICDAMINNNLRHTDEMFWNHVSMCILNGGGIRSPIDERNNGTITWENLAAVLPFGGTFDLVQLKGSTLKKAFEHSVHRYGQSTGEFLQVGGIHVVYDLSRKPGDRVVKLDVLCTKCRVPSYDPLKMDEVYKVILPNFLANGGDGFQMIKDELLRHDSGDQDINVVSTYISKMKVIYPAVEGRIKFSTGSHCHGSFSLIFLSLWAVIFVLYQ
Protocol text: Inhibition of soluble human CD73 incubated for 60 mins before addition of AMP and further incubated for 60 mins by colorimetric assay
Reported endpoint: IC50 (nM)
Just the number in nM, nothing appended.

I would be grateful if you could share the reported IC50 for `O=P(O)(O)COC[C@H]1O[C@@H](n2ncc3c(NC4CCCC4)nc(Cl)nc32)[C@H](O)[C@@H]1O` .
0.86

====

Protocol text: Half life in Sprague-Dawley rat at 0.25 to 0.5 mg/kg, iv measured up to 24 hrs by LC-MS/MS analysis
Assay type: ADME, organism-based
Condition notes: in vivo, dose 0.25-0.5 mg/kg
Use Y when the recorded half-life is no lower than 4 h; use N when it is lower.

Reference set (4 entries):
{"Test smiles": "C[C@H](Nc1nc(Cl)nc2c1cnn2[C@@H]1O[C@H](COCP(=O)(O)O)[C@@H](O)[C@H]1O)c1ccc(F)cc1", "Label value": "Y"}
{"Test smiles": "C[C@H](Nc1nc(Cl)nc2c1cnn2[C@@H]1O[C@H](COCP(=O)(O)O)[C@@H](O)[C@H]1O)c1ccccc1", "Label value": "N"}
{"Test smiles": "C[C@H](Nc1nc(Cl)nc2c1ncn2[C@@H]1O[C@H](COCP(=O)(O)O)[C@@H](O)[C@H]1O)c1ccccc1", "Label value": "N"}
{"Test smiles": "O=P(O)(O)COC[C@H]1O[C@@H](n2cnc3c(NC4CCCC4)nc(Cl)nc32)[C@H](O)[C@@H]1O", "Label value": "N"}

Now take the following molecule into account.
Could you tell me if the measured half-life of `O=P(O)(O)COC[C@H]1O[C@@H](n2ncc3c(NC4CCCC4)nc(Cl)nc32)[C@H](O)[C@@H]1O` reaches 4 h or more?
N

====

Measured clearance accompanies every entry in the list below.
Protocol text: Clearance in Sprague-Dawley rat at 0.25 to 0.5 mg/kg, iv measured up to 24 hrs by LC-MS/MS analysis
Type: ADME, organism-based
Condition notes: in vivo, dose 0.25-0.5 mg/kg
Just the number in mL/min/kg, nothing appended.

Known clearance results, listed for orientation:
{"Test smiles": "O=P(O)(O)COC[C@H]1O[C@@H](n2ncc3c(NC4CCCC4)nc(Cl)nc32)[C@H](O)[C@@H]1O", "Reported endpoint": "clearance", "Recorded result": 2.17}
{"Test smiles": "C[C@H](Nc1cc(Cl)nc2c1cnn2[C@@H]1O[C@H](COCP(=O)(O)O)[C@@H](O)[C@H]1O)c1ccc(F)cc1", "Reported endpoint": "clearance", "Recorded result": 0.3}
{"Test smiles": "C[C@H](Nc1nc(Cl)nc2c1cnn2[C@@H]1O[C@H](COCP(=O)(O)O)[C@@H](O)[C@H]1O)c1ccc(F)cc1", "Reported endpoint": "clearance", "Recorded result": 0.333}
{"Test smiles": "O=P(O)(O)COC[C@H]1O[C@@H](n2cnc3c(NC4CCCC4)nc(Cl)nc32)[C@H](O)[C@@H]1O", "Reported endpoint": "clearance", "Recorded result": 6.17}
{"Test smiles": "C[C@H](Nc1nc(Cl)nc2c1cnn2[C@@H]1O[C@H](COCP(=O)(O)O)[C@@H](O)[C@H]1O)c1ccccc1", "Reported endpoint": "clearance", "Recorded result": 0.517}

Here is another compound to look at.
I would be grateful if you could share the reported clearance for `C[C@H](Nc1nc(Cl)nc2c1ncn2[C@@H]1O[C@H](COCP(=O)(O)O)[C@@H](O)[C@H]1O)c1ccccc1` .
2.33

====

Study target: 5'-nucleotidase (Homo sapiens, UniProt P21589)
Protocol text: Inhibition of human CD73 expressed in CHO cells incubated for 60 mins before addition of AMP and further incubated for 60 mins by colorimetric assay
Format: cell-based
Measured IC50 accompanies every entry in the list below.
Just the number in nM, nothing appended.

Known IC50 results, listed for orientation:
{"Test smiles": "C[C@@H](Nc1nc(Cl)nc2c1ncn2[C@@H]1O[C@H](COCP(=O)(O)O)[C@@H](O)[C@H]1O)c1ccccc1", "Recorded result": 156}
{"Test smiles": "O=P(O)(O)COC[C@H]1O[C@@H](n2ncc3c(NC4CCCC4)nc(Cl)nc32)[C@H](O)[C@@H]1O", "Recorded result": 2.6}
{"Test smiles": "C[C@H](Nc1nc(Cl)nc2c1ncn2[C@@H]1O[C@H](COCP(=O)(O)O)[C@@H](O)[C@H]1O)c1ccccc1", "Recorded result": 65}

I would be grateful if you could share the reported IC50 for `Cn1cc(CNc2nc(Cl)nc3c2ncn3[C@@H]2O[C@H](COCP(=O)(O)O)[C@@H](O)[C@H]2O)cn1` .
201

Also check `O=P(O)(O)COC[C@H]1O[C@@H](n2cnc3c(NCC4CCCC4)nc(Cl)nc32)[C@H](O)[C@@H]1O`
124

Also check `COc1ccccc1CCNc1nc(Cl)nc2c1ncn2[C@@H]1O[C@H](COCP(=O)(O)O)[C@@H](O)[C@H]1O`
173

Also check `O=P(O)(O)OP(=O)(O)OC[C@H]1O[C@@H](n2cnc3c(NCc4ccccc4)nc(Cl)nc32)[C@H](O)[C@@H]1O`
0.4

Also check `O=P(O)(O)COC[C@H]1O[C@@H](n2cnc3c(NCCc4ccccc4F)nc(Cl)nc32)[C@H](O)[C@@H]1O`
121

Also check `O=P(O)(O)COC[C@H]1O[C@@H](n2cnc3c(NC4CCCC4)nc(COc4ccccc4)nc32)[C@H](O)[C@@H]1O`
13
